Measured values drawn from patent US9617256B2 for this set.

Test system: AECO001 (ATCC25922)
measurement notes: MIC broth microdilution, AECO001
Format: cell-based, E. coli
conditions used: Escherichia coli, ATCC25922, read-out: MIC AECO001
reported metric: MIC

Reference set (4 entries):
// lookup MIC | system=AECO001 (ATCC25922) | key= O=C(N[C@H](C(=O)NO)C1CCS(=O)(=O)CC1)c1ccc(/C=C/C#Cc2ccc(CN3CCOCC3)cc2)cc1
< 2 µg/mL

Could you share what MIC was measured for CC(C)(N)[C@H](NC(=O)c1ccc(C#CC2CC2c2ccccc2)cc1)C(=O)NO (stereo partly drawn) , tested on AECO001 (ATCC25922)?
2 to 16 µg/mL

# value lookup — system AECO001 (ATCC25922), readout MIC, item CC(C)(N)[C@H](NC(=O)c1ccc(C#CC#Cc2ccc(F)cc2)cc1)C(=O)NO
< 2 µg/mL

For the record C[C@@H](O)[C@H](NC(=O)c1ccc(/C=C/C#Cc2ccccc2)cc1)C(=O)NO , what value of MIC is listed for AECO001 (ATCC25922)?
< 2 µg/mL

---
Under AECO001 (ATCC25922): MIC value of CC(C)(N)[C@H](NC(=O)c1ccc(/C=C/C#CC2CCCC2)cc1)C(=O)NO ?
< 2 µg/mL

Param readout = MIC; param system = AECO001 (ATCC25922); param query = CC(C)(N)[C@H](NC(=O)c1ccc(C#CC#Cc2ccc(C(F)(F)F)cc2)cc1)C(=O)NO ; response: value
< 2 µg/mL

Request: MIC, test system AECO001 (ATCC25922), entry COC(=O)[C@@H](NC(=O)c1ccc(C#C/C(F)=C/c2ccc(CN3CCOCC3)cc2)cc1)[C@@H](C)O
< 2 µg/mL

Please state recorded MIC (tested on AECO001 (ATCC25922)) of CC(C)(N)[C@H](NC(=O)c1ccc(C#Cc2ccc(CNCC(F)F)cc2)cc1)C(=O)NO
< 2 µg/mL

Fill in the recorded MIC for this compound, with AECO001 (ATCC25922) as test system: C[C@@H](N)[C@H](NC(=O)c1ccc(C#C/C=C/c2ccc(CNC3CC3)cc2)cc1)C(=O)NO
< 2 µg/mL

Lab note: need MIC with AECO001 (ATCC25922) for entry C[C@H](O)[C@H](NC(=O)c1ccc(C#C/C=C/c2ccc(CN3CCOCC3)cc2)cc1)C(=O)NO , please look it up.
< 2 µg/mL

Checklist item: MIC tested on AECO001 (ATCC25922), entry C[C@@H](N)[C@H](NC(=O)c1ccc(C#Cc2ccc(CN3CCC(O)C3)cc2)cc1)C(=O)NO (stereo partly drawn) , value?
2 to 16 µg/mL

Reported MIC for AECO001 (ATCC25922), given CC(C)(C)CNCc1ccc(C#Cc2ccc(C(=O)N[C@H](C(=O)NO)C(C)(C)N)cc2)cc1 ?
< 2 µg/mL

Lookup: MIC / AECO001 (ATCC25922) / C[C@@H](N)[C@H](NC(=O)c1ccc(/C=C/C#Cc2ccc(OC(F)(F)F)cc2)cc1)C(=O)NO
2 to 16 µg/mL

Look up MIC with AECO001 (ATCC25922) for this compound: C[C@@H](N)[C@H](NC(=O)c1ccc(C#CC#Cc2ccncc2)cc1)C(=O)NO
< 2 µg/mL

Short answer please: MIC, AECO001 (ATCC25922), entry CC(C)(O)[C@H](NC(=O)c1ccc(C#CC#Cc2ccc(CNC3CC3)cc2)cc1)C(=O)NO
< 2 µg/mL

Hello, I am looking for reported MIC with AECO001 (ATCC25922) for CC(C)(O)[C@H](NC(=O)c1ccc(C#CC#Cc2ccsc2)cc1)C(=O)NO . Could you help?
< 2 µg/mL

Please provide the recorded MIC for CSC[C@H](NS(=O)(=O)c1ccc(C#Cc2ccc(CN3CCOCC3)cc2)cc1)C(=O)NO , tested on AECO001 (ATCC25922).
16 to 64 µg/mL

Recorded MIC for C[C@@H](N)[C@H](NC(=O)c1ccc(C#CC(O)c2ccccc2)cc1)C(=O)NO (stereo partly drawn) with AECO001 (ATCC25922), please?
16 to 64 µg/mL

Can you look up MIC on AECO001 (ATCC25922) for C[C@@H](N)[C@H](NC(=O)c1ccc(C#Cc2ccc(CNC3CC3)cc2)cc1)C(=O)NO ?
< 2 µg/mL

Form: Entry = CNC(=O)[C@@H](NC(=O)c1ccc(C#Cc2ccc(CN3CCOCC3)cc2)cc1)[C@@H](C)N | System = AECO001 (ATCC25922) | MIC = ____
> 64 µg/mL

# query: MIC | item C[C@@H](N)[C@H](NC(=O)c1ccc(C#Cc2cncnc2)cc1)C(=O)NO | system: AECO001 (ATCC25922)
< 2 µg/mL

API: value(readout=MIC, system=AECO001 (ATCC25922)) for record CC(C)(O)[C@H](NC(=O)c1ccc(/C=C/C#Cc2ccc(CN3CCOCC3)cc2)cc1)C(=O)NO
< 2 µg/mL

# value lookup — system AECO001 (ATCC25922), readout MIC, item C[C@@H](N)[C@H](NC(=O)c1ccc(C#Cc2ccc(CCN)cc2)cc1)C(=O)NO
> 64 µg/mL
